Some compounds, each annotated with its measured Activity.
# Measurement target: Cyclin-dependent kinase 2 (Homo sapiens) (UniProt P24941)
# Experimental protocol: Inhibition of wild-type human full length CDK2 (M1 to L298 residues) expressed in bacterial expression system assessed as remaining activity at 1 uM by Kinomescan method relative to control
Give the value in % but do not write % after it.

# Compound, Observed
records = [
    ("Cc1cnn2ncc(-c3ccnc(N(C)C)n3)c2c1", 89),
    ("FC1CCN(c2nccc(-c3cnn4ncccc34)n2)C1 (single isomer, unassigned)", 95),
    ("CN(c1nccc(-c2cnn3ncccc23)n1)C1CC1", 100),
]

In: Return the recorded Activity value; entry: C[C@H]1CCN(c2nccc(-c3cnn4ncccc34)n2)C1
Out: 100

In: Report Activity, nothing else, for this compound: NC1CCN(c2nccc(-c3cnn4ncccc34)n2)C1 (single isomer, unassigned)
Out: 86

* * *

# Measurement target: UniProt:P24941
# Experimental protocol: Inhibition of wild-type human full length CDK2 (M1 to L298 residues) expressed in bacterial expression system assessed as remaining activity at 1 uM by Kinomescan method relative to control
Measure: Activity (%)
Express it in %; write the number only.

# example entries with known answers
# Molecule, Measurement target, Activity, %
data = [
    ("COc1ccnn2ncc(-c3ccnc(N(C)C)n3)c12", "UniProt:P24941", 100),
    ("CC1CCN(c2nccc(-c3cnn4ncccc34)n2)C1 (single isomer, unassigned)", "UniProt:P24941", 95),
    ("CN(C)c1nccc(-c2cnc3ncccn23)n1", "UniProt:P24941", 86),
    ("CC1CCCN1c1nccc(-c2cnn3ncccc23)n1 (stereo not drawn)", "UniProt:P24941", 100),
    ("N[C@H]1CCN(c2nccc(-c3cnn4ncccc34)n2)C1", "UniProt:P24941", 100),
    ("CN(C)c1nccc(-c2cnn3ncccc23)n1", "UniProt:P24941", 100),
    ("CN(C)c1ncc(F)c(-c2cnn3ncccc23)n1", "UniProt:P24941", 100),
]

In: Look up and state reported Activity for c1cnn2ncc(-c3ccnc(N4CCC45COC5)n3)c2c1
Out: 100

* * *

The entries below are paired with their reported Activity.
# Measurement target: UniProt:Q92630
# Sequence (Q92630 whole entry, the tested form may be a part): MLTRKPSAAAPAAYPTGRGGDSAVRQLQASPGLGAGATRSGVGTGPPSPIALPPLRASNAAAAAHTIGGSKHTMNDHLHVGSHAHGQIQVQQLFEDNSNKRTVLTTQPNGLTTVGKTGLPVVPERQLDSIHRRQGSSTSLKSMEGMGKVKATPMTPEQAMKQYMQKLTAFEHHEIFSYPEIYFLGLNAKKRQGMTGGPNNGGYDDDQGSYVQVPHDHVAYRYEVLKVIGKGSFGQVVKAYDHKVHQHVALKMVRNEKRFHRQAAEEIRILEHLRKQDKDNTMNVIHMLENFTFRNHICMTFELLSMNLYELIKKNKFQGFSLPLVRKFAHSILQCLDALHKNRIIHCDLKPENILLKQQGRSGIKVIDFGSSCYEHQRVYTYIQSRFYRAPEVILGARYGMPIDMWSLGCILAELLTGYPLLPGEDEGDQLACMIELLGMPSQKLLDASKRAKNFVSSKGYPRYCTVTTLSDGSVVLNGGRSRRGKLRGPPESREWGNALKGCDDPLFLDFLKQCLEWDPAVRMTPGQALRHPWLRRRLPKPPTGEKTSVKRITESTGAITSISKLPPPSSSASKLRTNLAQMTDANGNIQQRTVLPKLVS
# Experimental protocol: Inhibition of wild-type human full length DYRK2 (M1 to S528 residues) expressed in mammalian expression system assessed as remaining activity at 1 uM by Kinomescan method relative to control
# number only, unit % dropped from output

The following compounds have reported results that may help.
# Compound, Activity [%]
data = [
    ("FC1CCN(c2nccc(-c3cnn4ncccc34)n2)C1 (single isomer, unassigned)", 39),
    ("c1cnn2ncc(-c3ccnc(N4CCC45COC5)n3)c2c1", 11),
    ("CN(C)c1nccc(-c2cnc3ncccn23)n1", 35),
    ("CN(c1nccc(-c2cnn3ncccc23)n1)C1CC1", 100),
    ("CC1CCCN1c1nccc(-c2cnn3ncccc23)n1 (stereo not drawn)", 66),
]

In: For the compound C[C@H]1CCN(c2nccc(-c3cnn4ncccc34)n2)C1 , report Activity.
Out: 15

In: Give Activity for the following compound: N[C@H]1CCN(c2nccc(-c3cnn4ncccc34)n2)C1
Out: 29

In: Specify Activity for CC1CCN(c2nccc(-c3cnn4ncccc34)n2)C1 (single isomer, unassigned) and stop.
Out: 25

In: Fill in Activity for record COc1ccnn2ncc(-c3ccnc(N(C)C)n3)c12
Out: 24

In: // Input: CN(C)c1ncc(F)c(-c2cnn3ncccc23)n1 . Output its Activity only.
Out: 55

In: Indicate its recorded Activity; the compound in question is NC1CCN(c2nccc(-c3cnn4ncccc34)n2)C1 (single isomer, unassigned)
Out: 28

In: Give Activity for the following compound: Cc1cnn2ncc(-c3ccnc(N(C)C)n3)c2c1
Out: 25

In: Let me know recorded Activity for CN(C)c1nccc(-c2cnn3ncccc23)n1 , thanks.
Out: 19

* * *

# Measurement target: Glycogen synthase kinase-3 beta (Homo sapiens) (UniProt P49841)
# Sequence (P49841 whole entry, looked up, the tested form may be a part): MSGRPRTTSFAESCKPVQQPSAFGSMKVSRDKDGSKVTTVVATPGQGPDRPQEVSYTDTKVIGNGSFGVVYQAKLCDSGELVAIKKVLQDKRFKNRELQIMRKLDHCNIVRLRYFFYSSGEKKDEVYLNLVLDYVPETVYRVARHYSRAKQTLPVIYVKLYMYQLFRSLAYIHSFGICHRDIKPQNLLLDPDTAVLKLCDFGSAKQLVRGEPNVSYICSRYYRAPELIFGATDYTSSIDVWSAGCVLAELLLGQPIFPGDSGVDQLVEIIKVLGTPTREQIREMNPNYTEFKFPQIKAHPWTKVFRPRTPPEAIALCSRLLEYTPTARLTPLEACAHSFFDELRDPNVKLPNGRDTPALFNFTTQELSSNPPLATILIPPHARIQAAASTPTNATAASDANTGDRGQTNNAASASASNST
# Experimental protocol: Inhibition of wild-type human full length GSK3B (M1 to T433 residues) expressed in mammalian expression system assessed as remaining activity at 1 uM by Kinomescan method relative to control
Measure: Activity (%)
# value in %; strip the unit string

The cases that follow already have their Activity on record.
# Molecule, Measurement target, Activity / %
records = [
    ("NC1CCN(c2nccc(-c3cnn4ncccc34)n2)C1 (single isomer, unassigned)", "Glycogen synthase kinase-3 beta (Homo sapiens) (UniProt P49841)", 100),
    ("COc1ccnn2ncc(-c3ccnc(N(C)C)n3)c12", "Glycogen synthase kinase-3 beta (Homo sapiens) (UniProt P49841)", 100),
    ("CN(c1nccc(-c2cnn3ncccc23)n1)C1CC1", "Glycogen synthase kinase-3 beta (Homo sapiens) (UniProt P49841)", 91),
]

In: Return Activity (reported value) for this molecule: C[C@H]1CCN(c2nccc(-c3cnn4ncccc34)n2)C1
Out: 77

In: Read off the recorded Activity for CN(C)c1ncc(F)c(-c2cnn3ncccc23)n1
Out: 93

In: Report Activity, nothing else, for this molecule: CN(C)c1nccc(-c2cnn3ncccc23)n1
Out: 94

In: // Input: c1cnn2ncc(-c3ccnc(N4CCC45COC5)n3)c2c1 . Output its Activity only.
Out: 75

In: Look up and state reported Activity for N[C@H]1CCN(c2nccc(-c3cnn4ncccc34)n2)C1
Out: 100

* * *

# Measurement target: UniProt:P49761
# Sequence (P49761 whole entry, looked up, the tested form may be a part): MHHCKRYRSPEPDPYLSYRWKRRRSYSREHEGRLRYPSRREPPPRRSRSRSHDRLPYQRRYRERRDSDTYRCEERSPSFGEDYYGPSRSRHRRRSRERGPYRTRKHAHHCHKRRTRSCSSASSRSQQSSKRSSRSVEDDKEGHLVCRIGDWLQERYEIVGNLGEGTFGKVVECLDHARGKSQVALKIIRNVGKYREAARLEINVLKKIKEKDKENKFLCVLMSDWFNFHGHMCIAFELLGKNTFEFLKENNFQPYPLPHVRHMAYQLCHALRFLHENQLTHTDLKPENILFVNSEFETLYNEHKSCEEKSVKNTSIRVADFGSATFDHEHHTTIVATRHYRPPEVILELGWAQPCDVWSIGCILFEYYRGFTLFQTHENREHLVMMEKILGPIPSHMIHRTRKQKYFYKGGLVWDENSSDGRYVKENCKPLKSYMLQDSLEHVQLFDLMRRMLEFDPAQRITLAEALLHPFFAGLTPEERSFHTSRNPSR
# Experimental protocol: Inhibition of wild-type human full length CLK3 (M1 to R490 residues) expressed in bacterial expression system assessed as remaining activity at 1 uM by Kinomescan method relative to control
Binary label based on Activity with cut-off 80%: below gives true, not below gives false.

# Compound, Measurement target, Category
data = [
    ("c1cnn2ncc(-c3ccnc(N4CCC45COC5)n3)c2c1", "UniProt:P49761", "true"),
    ("Cc1cnn2ncc(-c3ccnc(N(C)C)n3)c2c1", "UniProt:P49761", "true"),
]

In: Dear reviewer, please state whether CN(C)c1nccc(-c2cnc3ncccn23)n1 has Activity strictly beneath 80%.
Out: true

In: Below 80% on Activity? Entry COc1ccnn2ncc(-c3ccnc(N(C)C)n3)c12
Out: false

In: Hello, is Activity of the following compound strictly smaller than 80%? FC1CCN(c2nccc(-c3cnn4ncccc34)n2)C1 (single isomer, unassigned)
Out: false

In: Does the reported Activity of the following compound sit strictly below 80%? NC1CCN(c2nccc(-c3cnn4ncccc34)n2)C1 (single isomer, unassigned)
Out: false

* * *

# Experimental protocol: Thermodynamic solubility of the compound at pH 6.8
# Assay type: physicochemical
# Experimental setup: buffer, read-out: Therm_solubility
Known solubility thermodynamic of a selection of compounds
Write it as a number; the unit µg/mL goes unstated.

Below are worked cases with known answers.
# Compound, Unit name, solubility thermodynamic
measured = [
    ("CN(C)c1nccc(-c2cnc3ncccn23)n1", "µg/mL", 470),
    ("C[C@H]1CCN(c2nccc(-c3cnn4ncccc34)n2)C1", "µg/mL", 20),
    ("CC1CCCN1c1nccc(-c2cnn3ncccc23)n1 (stereo unspecified)", "µg/mL", 10),
    ("c1cnn2ncc(-c3ccnc(N4CCC45COC5)n3)c2c1", "µg/mL", 60),
    ("NC1CCN(c2nccc(-c3cnn4ncccc34)n2)C1 (single isomer, unassigned)", "µg/mL", 4370),
]

Field: next compound
In: Retrieve solubility thermodynamic measured for COc1ccnn2ncc(-c3ccnc(N(C)C)n3)c12 and print it.
Out: 70

* * *

# Measurement target: UniProt P49759
# Sequence (P49759 whole entry): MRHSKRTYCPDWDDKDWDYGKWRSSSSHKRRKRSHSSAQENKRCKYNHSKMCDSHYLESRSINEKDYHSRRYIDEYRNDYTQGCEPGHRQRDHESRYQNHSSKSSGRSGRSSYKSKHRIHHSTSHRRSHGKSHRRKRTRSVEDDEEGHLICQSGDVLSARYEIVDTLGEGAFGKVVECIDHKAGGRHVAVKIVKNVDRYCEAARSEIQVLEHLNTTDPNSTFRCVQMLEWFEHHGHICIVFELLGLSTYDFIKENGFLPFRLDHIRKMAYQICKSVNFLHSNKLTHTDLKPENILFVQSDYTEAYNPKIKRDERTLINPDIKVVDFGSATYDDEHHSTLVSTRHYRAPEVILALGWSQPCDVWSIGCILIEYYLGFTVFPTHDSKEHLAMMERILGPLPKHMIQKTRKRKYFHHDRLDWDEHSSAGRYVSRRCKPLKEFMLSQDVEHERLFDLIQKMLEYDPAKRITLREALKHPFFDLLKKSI
Measure: Kd (µM)
Entry rule: numbers only, all in µM.

In: Look up and report Kd, with UniProt P49759 as system, for CN(C)c1nccc(-c2cnn3ncccc23)n1
Out: 0.07

* * *

# Measurement target: Dual specificity tyrosine-phosphorylation-regulated kinase 1A (Homo sapiens, UniProt Q13627)
# Experimental protocol: Inhibition of human DYRK1A-mediated tau phosphorylation expressed in HEK293 cells incubated for 2 hrs by ELISA
# Format: cell-based
Measure: pIC50
Give only the number. pIC50 is defined as minus log10 of concentration in molar units.

In: Please give the documented pIC50 of CN(C)c1ncc(F)c(-c2cnn3ncccc23)n1
Out: 6.60

* * *

Listing of recorded Activity by entry.
# Measurement target: Dual specificity protein kinase CLK3 (Homo sapiens)
# Experimental protocol: Inhibition of wild-type human full length CLK3 (M1 to R490 residues) expressed in bacterial expression system assessed as remaining activity at 1 uM by Kinomescan method relative to control
Your answer should be a plain number; it is taken to be in %.

Some compounds with recorded Activity:
# Compound, Activity (%)
records = [
    ("C[C@H]1CCN(c2nccc(-c3cnn4ncccc34)n2)C1", 88),
    ("N[C@H]1CCN(c2nccc(-c3cnn4ncccc34)n2)C1", 95),
    ("CN(C)c1ncc(F)c(-c2cnn3ncccc23)n1", 84),
    ("CN(C)c1nccc(-c2cnn3ncccc23)n1", 54),
    ("CC1CCCN1c1nccc(-c2cnn3ncccc23)n1 (configuration not stated)", 100),
]

In: Note Activity for the compound shown: CC1CCN(c2nccc(-c3cnn4ncccc34)n2)C1 (single isomer, unassigned)
Out: 73

In: Look up and report measured Activity for this entry: CN(c1nccc(-c2cnn3ncccc23)n1)C1CC1
Out: 96
